experiment: Absorption and emission spectra of dyes in different solvents; format: physicochemical; details: solvent Water
measurement_kind: λabs1 (nm)
State the answer as a number, implicitly in nm.

**Q:** Report λabs1 for CCN1/C(=C/C=C/C(N)=C/C2=[N+](CC)c3ccccc3C2(C)C)C(C)(C)c2ccccc21 [Dye IIa] please.
**A:** 527

**Q:** What about CCN(CC)C(=C\C1=[N+](CC)c2ccccc2C1(C)C)/C=C/C=C1/N(CC)c2ccccc2C1(C)C [Dye IId] ?
**A:** 501

**Q:** Also check CCN1/C(=C/C=C/C(=C/C2=[N+](CC)c3ccccc3C2(C)C)N(Cc2ccccc2)Cc2ccccc2)C(C)(C)c2ccccc21 [Dye IIf]
**A:** 525

----------
So I've got a bunch of molecules here, and I need their Δλ1 values.
test: Absorption and emission spectra of dyes in different solvents; assay type: physicochemical; design: key: Stokes shift in nm; settings: Stokes shift to absorption peak 1; solvent DCM

**Q:** Name the reported Δλ1 value associated with the molecule CCN1/C(=C/C=C/C(=C/C2=[N+](CC)c3ccccc3C2(C)C)NCc2ccccc2)C(C)(C)c2ccccc21 [Dye IIe]
**A:** 81

**Q:** What would you report for CCN(CC)C(=C\C1=[N+](CC)c2ccccc2C1(C)C)/C=C/C=C1/N(CC)c2ccccc2C1(C)C [Dye IId] ?
**A:** 88

**Q:** Continue with CCN1/C(=C/C=C/C(N)=C/C2=[N+](CC)c3ccccc3C2(C)C)C(C)(C)c2ccccc21 [Dye IIa]
**A:** 63

**Q:** Consider next the molecule CCN1/C(=C/C=C/C(=C/C2=[N+](CC)c3ccccc3C2(C)C)NCCO)C(C)(C)c2ccccc21 [Dye IIb] in the same way.
**A:** 79

----------
experiment: Absorption and emission spectra of dyes in different solvents; type: physicochemical; set-up: scale not given here; settings: solvent Methanol
measurement_kind: ε1 (molar extinction coefficient) (cm^−1M)
Hi! Could you send only the number? It should be in cm^−1M, unit omitted.

**Q:** ε1 (molar extinction coefficient) for CCN1/C(=C/C=C/C(=C/C2=[N+](CC)c3ccccc3C2(C)C)NCCO)C(C)(C)c2ccccc21 [Dye IIb] ?
**A:** 3.1

**Q:** Follow-up item: CCN1/C(=C/C=C/C(N)=C/C2=[N+](CC)c3ccccc3C2(C)C)C(C)(C)c2ccccc21 [Dye IIa]
**A:** 5.1

**Q:** // next record CCN1/C(=C/C=C/C(=C/C2=[N+](CC)c3ccccc3C2(C)C)N(Cc2ccccc2)Cc2ccccc2)C(C)(C)c2ccccc21 [Dye IIf]
**A:** 3.4

**Q:** Consider next the molecule CCN1/C(=C/C=C/C(=C/C2=[N+](CC)c3ccccc3C2(C)C)Nc2ccccc2)C(C)(C)c2ccccc21 [Dye IIg] in the same way.
**A:** 2.3

**Q:** // same read-out, input: CCN(CC)C(=C\C1=[N+](CC)c2ccccc2C1(C)C)/C=C/C=C1/N(CC)c2ccccc2C1(C)C [Dye IId]
**A:** 3.9

**Q:** Please give the result for CCN1/C(=C/C=C/C(=C/C2=[N+](CC)c3ccccc3C2(C)C)N(CCO)CCO)C(C)(C)c2ccccc21 [Dye IIc] too.
**A:** 3.1

**Q:** Also CCN1/C(=C/C=C/C(=C/C2=[N+](CC)c3ccccc3C2(C)C)NCc2ccccc2)C(C)(C)c2ccccc21 [Dye IIe] ?
**A:** 2.7
